biological target: NRZ (zebrafish pro-survival Bcl-2 protein), lacking the 28 C-terminal residues (zebrafish (Danio rerio)); experiment: ITC; MicroCal iTC200, 25 °C; NRZ (wt, D79A or R86A) at 30 μM in 25 mM HEPES pH 7.5, 150 mM NaCl, 2 mM BME; BH3 peptide at 300 μM titrated in 19 injections of 2.0 μl; triplicate
For each of the binders below, state its Kd.
Give the quantity in nM, number only.

Param item = LCPAPSRASAALRHAGDELLIRFPIF [zBcl-wav BH3 motif peptide] ; retrieve measured Kd. 3570

Param item = NMRVTQTIGRQLAQIGDEMDNKWRQE [zBik BH3 motif peptide] ; retrieve measured Kd. 12

Param item = ALPPEMVVARELRRIGDEFNRLYCEA [zBim BH3 motif peptide] ; retrieve measured Kd. 41

Param item = EARAAREMAAELIRIADLLEQSVLSQAA [zBid BH3 motif peptide] ; retrieve measured Kd. 409
